Assignment: determine reported CC50 at 72 h for the given compounds.
assay: Cytotoxicity against human VA13 cells assessed as reduction in cell viability measured after 72 hrs by MTT assay; type: cell-based; conditions: WI-38 VA13 cells
Hi! Could you send only the number? It should be in nM, unit omitted.

Exercise: Input `CC(=O)O[C@H]1C(=O)[C@@]2(C)[C@H]([C@H](OC(=O)c3ccccc3)[C@]3(O)C[C@H](OC(=O)[C@H](OC(=O)CCCc4cn(CCCCCC(=O)N(CCCC[C@H](NC(=O)N[C@@H](CCC(=O)O)C(=O)O)C(=O)O)Cc5ccc(O)cc5)nn4)[C@@H](NC(=O)c4ccccc4)c4ccccc4)C(C)=C1C3(C)C)[C@]1(OC(C)=O)CO[C@@H]1C[C@@H]2O` , output reported CC50 at 72 h.
Key: 65

Exercise: In one line, give reported CC50 at 72 h of the entry `CC(=O)O[C@H]1C(=O)[C@@]2(C)[C@H]([C@H](OC(=O)c3ccccc3)[C@]3(O)C[C@H](OC(=O)[C@H](OC(=O)CCCc4cn(CCCCCCCCCCC(=O)N(CCCC[C@H](NC(=O)N[C@@H](CCC(=O)O)C(=O)O)C(=O)O)Cc5ccc(F)cc5)nn4)[C@@H](NC(=O)c4ccccc4)c4ccccc4)C(C)=C1C3(C)C)[C@]1(OC(C)=O)CO[C@@H]1C[C@@H]2O` .
Key: 27

---

test: Cytotoxicity against human VA13 cells assessed as reduction in cell viability measured after 72 hrs by MTT assay; assay type: cell-based; settings: WI-38 VA13 cells
quantity: CC50 at 72 h (nM)
Number in nM, nothing else.

Exercise: Please give measured CC50 at 72 h of the following entry: `CC(=O)O[C@H]1C(=O)[C@@]2(C)[C@H]([C@H](OC(=O)c3ccccc3)[C@]3(O)C[C@H](OC(=O)[C@H](OC(=O)CCCc4cn(CCCCCCCCCCC(=O)NCCCC[C@H](NC(=O)N[C@@H](CCC(=O)O)C(=O)O)C(=O)O)nn4)[C@@H](NC(=O)c4ccccc4)c4ccccc4)C(C)=C1C3(C)C)[C@]1(OC(C)=O)CO[C@@H]1C[C@@H]2O`
Key: 66

Exercise: Fill in reported CC50 at 72 h for this entry: `CC(=O)O[C@H]1C(=O)[C@@]2(C)[C@H]([C@H](OC(=O)c3ccccc3)[C@]3(O)C[C@H](OC(=O)[C@H](OC(=O)CCCc4cn(CCCCCC(=O)N(CCCC[C@H](NC(=O)N[C@@H](CCC(=O)O)C(=O)O)C(=O)O)Cc5ccc(Cl)cc5)nn4)[C@@H](NC(=O)c4ccccc4)c4ccccc4)C(C)=C1C3(C)C)[C@]1(OC(C)=O)CO[C@@H]1C[C@@H]2O`
Key: 48

Exercise: Tell us which CC50 at 72 h value is on record for `CC(=O)O[C@H]1C(=O)[C@@]2(C)[C@H]([C@H](OC(=O)c3ccccc3)[C@]3(O)C[C@H](OC(=O)[C@H](OC(=O)CCCc4cn(CCCCCCCCCCC(=O)N(CCCC[C@H](NC(=O)N[C@@H](CCC(=O)O)C(=O)O)C(=O)O)Cc5ccc(Cl)cc5)nn4)[C@@H](NC(=O)c4ccccc4)c4ccccc4)C(C)=C1C3(C)C)[C@]1(OC(C)=O)CO[C@@H]1C[C@@H]2O`
Key: 24

Exercise: Return CC50 at 72 h for the following compound: `[N-]=[N+]=NCCCCCC(=O)N(CCCC[C@H](NC(=O)N[C@@H](CCC(=O)O)C(=O)O)C(=O)O)Cc1ccc(O)cc1`
Key: 50200

Exercise: Report measured CC50 at 72 h; entry is `CC(=O)O[C@H]1C(=O)[C@]2(C)[C@@H](OC(=O)CCCc3cn(CCCCCCCCCCC(=O)NCCCC[C@H](NC(=O)N[C@@H](CCC(=O)O)C(=O)O)C(=O)O)nn3)C[C@H]3OC[C@@]3(OC(C)=O)[C@H]2[C@H](OC(=O)c2ccccc2)[C@]2(O)C[C@H](OC(=O)[C@H](O)[C@@H](NC(=O)c3ccccc3)c3ccccc3)C(C)=C1C2(C)C`
Key: 1160
